In this section we review reported pIC50 values for a set of molecules.
test system: human acute T-cell leukemia Jurkat cells; assay: MTT cytotoxicity assay, Jurkat; format: cell-based; details: Homo sapiens, MTT, 72 h, n = 3, ± SD, read-out: Suspension Cell Cultures, IC50 Jurkat
Give only the number. pIC50 is defined as minus log10 of concentration in molar units.

{"MOLECULE": "C=CCN[C@@H]1C2=C(O[C@@H](CCCCC)[C@]1(C)O)C(=C)N(OC)C2=O", "OBSERVED_PROPERTY": "pIC50", "ENDPOINT_RESULT": 5.49}
{"MOLECULE": "C=C1C2=C(C(=O)N1OC)[C@@H](N1CCC(O)CC1)[C@@](C)(O)[C@H](CCCCC)O2", "OBSERVED_PROPERTY": "pIC50", "ENDPOINT_RESULT": 5.59}
{"MOLECULE": "COc1cc([C@@H]2c3cc4c(cc3[C@@H](O[C@@H]3O[C@@H]5CO[C@@H](C)O[C@H]5[C@H](O)[C@H]3O)[C@H]3COC(=O)[C@H]23)OCO4)cc(OC)c1O [Etoposide, etoposide, reference compound]", "OBSERVED_PROPERTY": "pIC50", "ENDPOINT_RESULT": 6.06}
{"MOLECULE": "C=C1C2=C(C(=O)N1OC)[C@@H](NCCCCO)[C@@](C)(O)[C@H](CCCCC)O2", "OBSERVED_PROPERTY": "pIC50", "ENDPOINT_RESULT": 5.50}
{"MOLECULE": "C=C1C2=C(C(=O)N1OC)[C@@H](NC)[C@@](C)(O)[C@H](CCCCC)O2", "OBSERVED_PROPERTY": "pIC50", "ENDPOINT_RESULT": 5.56}

Kindly note the recorded pIC50 for `C=C1C2=C(C(=O)N1OC)[C@@H](NCc1ccccc1)[C@@](C)(O)[C@H](CCCCC)O2` , which is 5.00

Kindly note the recorded pIC50 for C=C1C2=C(C(=O)N1OC)[C@H](O)[C@@](C)(O)[C@H](CCCCC)O2 [PPA, phaeosphaeride A] , which is 5.01

Kindly note the recorded pIC50 for `C=C1C2=C(C(=O)N1OC)[C@@H](NCCO)[C@@](C)(O)[C@H](CCCCC)O2` , which is 5.59

Kindly note the recorded pIC50 for `C=C1C2=C(C(=O)N1OC)[C@@H](N1CCC(N3CCCC3)CC1)[C@@](C)(O)[C@H](CCCCC)O2` , which is 5.56

Kindly note the recorded pIC50 for `C=C1C2=C(C(=O)N1OC)[C@@H](N1CCCC1)[C@@](C)(O)[C@H](CCCCC)O2` , which is 6.26

Source: paper PMC6278656
